measurement.target: LRRK2-pSer935 (Homo sapiens, UniProt Q5S007)
Construct: human primary cells expressing endogenous levels of LRRK2; endogenous in cells
Sequence (Q5S007 whole entry): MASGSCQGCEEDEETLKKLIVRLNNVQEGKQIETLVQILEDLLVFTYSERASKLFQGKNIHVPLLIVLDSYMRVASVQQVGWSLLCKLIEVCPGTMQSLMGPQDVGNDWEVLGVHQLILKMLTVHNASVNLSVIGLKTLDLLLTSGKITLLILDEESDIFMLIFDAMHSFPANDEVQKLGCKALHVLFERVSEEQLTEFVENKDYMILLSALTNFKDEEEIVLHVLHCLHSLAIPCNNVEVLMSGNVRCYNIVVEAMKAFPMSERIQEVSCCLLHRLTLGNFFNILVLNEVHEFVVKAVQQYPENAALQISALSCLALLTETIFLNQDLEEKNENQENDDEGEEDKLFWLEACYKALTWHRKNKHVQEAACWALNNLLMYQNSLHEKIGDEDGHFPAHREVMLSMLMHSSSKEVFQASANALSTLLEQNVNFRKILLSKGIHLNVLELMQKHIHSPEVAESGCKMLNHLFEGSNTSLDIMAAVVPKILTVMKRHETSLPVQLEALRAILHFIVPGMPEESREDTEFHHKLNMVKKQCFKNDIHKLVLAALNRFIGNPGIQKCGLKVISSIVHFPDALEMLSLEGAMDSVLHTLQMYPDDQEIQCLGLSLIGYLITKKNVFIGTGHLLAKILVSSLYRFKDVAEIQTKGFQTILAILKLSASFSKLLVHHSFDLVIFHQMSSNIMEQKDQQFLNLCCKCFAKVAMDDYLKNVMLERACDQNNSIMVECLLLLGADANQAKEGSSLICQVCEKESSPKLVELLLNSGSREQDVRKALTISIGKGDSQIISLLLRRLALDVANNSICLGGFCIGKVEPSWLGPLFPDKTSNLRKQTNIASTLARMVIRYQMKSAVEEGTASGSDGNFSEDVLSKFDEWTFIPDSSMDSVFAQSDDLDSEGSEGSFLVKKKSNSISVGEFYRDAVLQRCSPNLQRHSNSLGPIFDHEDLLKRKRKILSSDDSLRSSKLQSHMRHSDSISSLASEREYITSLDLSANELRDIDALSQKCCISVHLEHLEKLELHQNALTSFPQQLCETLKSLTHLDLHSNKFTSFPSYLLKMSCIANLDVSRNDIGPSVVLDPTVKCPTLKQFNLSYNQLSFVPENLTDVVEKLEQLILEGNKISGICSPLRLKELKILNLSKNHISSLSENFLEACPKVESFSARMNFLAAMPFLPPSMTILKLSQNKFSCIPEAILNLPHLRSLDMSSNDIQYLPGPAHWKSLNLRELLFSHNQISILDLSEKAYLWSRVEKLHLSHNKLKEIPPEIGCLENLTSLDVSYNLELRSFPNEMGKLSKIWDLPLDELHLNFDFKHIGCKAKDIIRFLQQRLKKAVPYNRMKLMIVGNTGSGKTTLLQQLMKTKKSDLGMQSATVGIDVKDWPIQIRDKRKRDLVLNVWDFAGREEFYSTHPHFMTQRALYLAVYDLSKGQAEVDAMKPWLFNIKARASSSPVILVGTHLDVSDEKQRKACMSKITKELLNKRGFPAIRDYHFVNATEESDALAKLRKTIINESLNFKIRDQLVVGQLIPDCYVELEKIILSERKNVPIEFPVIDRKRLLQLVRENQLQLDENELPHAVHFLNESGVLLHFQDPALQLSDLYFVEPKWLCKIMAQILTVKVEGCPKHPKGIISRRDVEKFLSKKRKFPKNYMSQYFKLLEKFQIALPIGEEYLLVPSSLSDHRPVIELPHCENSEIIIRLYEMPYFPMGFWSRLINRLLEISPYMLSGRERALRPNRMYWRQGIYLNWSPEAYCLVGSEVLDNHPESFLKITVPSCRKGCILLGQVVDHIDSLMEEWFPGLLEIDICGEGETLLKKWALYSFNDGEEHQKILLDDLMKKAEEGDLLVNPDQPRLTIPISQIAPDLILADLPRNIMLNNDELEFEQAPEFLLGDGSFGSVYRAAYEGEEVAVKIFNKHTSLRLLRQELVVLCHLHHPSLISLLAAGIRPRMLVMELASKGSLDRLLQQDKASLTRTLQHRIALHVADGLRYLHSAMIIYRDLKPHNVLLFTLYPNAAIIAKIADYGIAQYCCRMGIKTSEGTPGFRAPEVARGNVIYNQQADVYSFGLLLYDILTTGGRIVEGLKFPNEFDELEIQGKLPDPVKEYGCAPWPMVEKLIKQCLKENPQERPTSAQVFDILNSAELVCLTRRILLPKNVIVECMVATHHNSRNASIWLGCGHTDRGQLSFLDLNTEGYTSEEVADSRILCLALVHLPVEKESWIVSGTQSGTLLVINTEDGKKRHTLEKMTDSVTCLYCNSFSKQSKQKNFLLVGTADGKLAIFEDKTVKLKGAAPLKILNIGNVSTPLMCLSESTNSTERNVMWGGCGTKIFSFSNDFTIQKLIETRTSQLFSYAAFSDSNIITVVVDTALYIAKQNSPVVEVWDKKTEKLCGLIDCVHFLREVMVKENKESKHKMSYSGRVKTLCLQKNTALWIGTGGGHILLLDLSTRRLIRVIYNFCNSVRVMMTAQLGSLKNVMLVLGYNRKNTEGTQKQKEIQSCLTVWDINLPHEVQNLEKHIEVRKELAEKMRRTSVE
test.method.notes: Acute inhibition, Western Blot, non-stimulated human PBMCs
cond: non-stimulated human PBMCs; 1 hour; n = 3
Procedure: HEK293 cells were plated at a density of 1 × 10^6 cells/well in 6-well plates pre-coated for 1 hr at 37 °C with poly-L-lysin. […] The proteins were visually detected by infrared imaging using Odyssey CLx (LI-COR, Nebraska, US). Membranes were scanned and band intensities were quantified using the Image Studio version 3.1.4 (LI-COR, Nebraska). […]
pIC50: −log10 of the molar value.
endpoint.label: pIC50

>>> observed_result("Cn1cc(-c2c[nH]c3ncnc(N4CCOCC4)c23)cc1C#N [PFE-360]")
7.62
